- Tested System: Grb2 SH2 (UniProt P62993)
- Sequence (P62993 whole entry, looked up): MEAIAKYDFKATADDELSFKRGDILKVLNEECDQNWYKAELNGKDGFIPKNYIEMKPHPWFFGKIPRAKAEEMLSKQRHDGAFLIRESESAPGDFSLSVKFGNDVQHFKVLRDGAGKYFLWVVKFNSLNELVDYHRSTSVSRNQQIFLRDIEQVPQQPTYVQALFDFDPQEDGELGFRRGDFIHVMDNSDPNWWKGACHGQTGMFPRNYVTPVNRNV
- Measurement Protocol: SH2 binding enrichment of the phosphorylated peptide, bacterial display (enrichment ratio); higher = better substrate or ligand; peptides without Tyr show the background
Test Readout: SH2 binding enrichment
Format: numeric value only, no unit, no commentary.

Sequence Record | Recorded Result
SREALYNETDP [CACNA1A_Y794_M797T] | 0.89
RFLERYIFNRQ [HLA-DPB1_Y57_E62Q_YF] | 0.901
PEACDYGLGGG [GSTO1_Y239] | 0.912

Now take the following sequence into account.
INPUT: Fill in: SH2 binding enrichment of LVKDGYQMAQP [CSF1R_Y873] is ___
OUTPUT: 0.874

----------
- Tested System: c-Src SH2
- Measurement Protocol: SH2 binding enrichment of the phosphorylated peptide, bacterial display (enrichment ratio); higher = better substrate or ligand; peptides without Tyr show the background
Answer -1 if SH2 binding enrichment is under 0.7, and 1 if it is 0.7 or more.

Use these answered entries as a reference point.
Sequence Record | Assigned Label
IVLRSYPASGH [NID2_Y449] | -1
WFPSTYVEEDE [VAV3_Y842] | 1
VHNLDYYKMTT [FGFR3_Y647_K650M] | 1

Lab note: next sequence to report on.
INPUT: Could you verify whether the entry SVTCTYSSALN [TP53_Y126_P128S] shows SH2 binding enrichment of no less than 0.7?
OUTPUT: -1

----------
Measured phosphorylation enrichment values are reported for all entries that follow.
- Tested System: MERTK (UniProt Q12866)
- Sequence (Q12866 whole entry, looked up): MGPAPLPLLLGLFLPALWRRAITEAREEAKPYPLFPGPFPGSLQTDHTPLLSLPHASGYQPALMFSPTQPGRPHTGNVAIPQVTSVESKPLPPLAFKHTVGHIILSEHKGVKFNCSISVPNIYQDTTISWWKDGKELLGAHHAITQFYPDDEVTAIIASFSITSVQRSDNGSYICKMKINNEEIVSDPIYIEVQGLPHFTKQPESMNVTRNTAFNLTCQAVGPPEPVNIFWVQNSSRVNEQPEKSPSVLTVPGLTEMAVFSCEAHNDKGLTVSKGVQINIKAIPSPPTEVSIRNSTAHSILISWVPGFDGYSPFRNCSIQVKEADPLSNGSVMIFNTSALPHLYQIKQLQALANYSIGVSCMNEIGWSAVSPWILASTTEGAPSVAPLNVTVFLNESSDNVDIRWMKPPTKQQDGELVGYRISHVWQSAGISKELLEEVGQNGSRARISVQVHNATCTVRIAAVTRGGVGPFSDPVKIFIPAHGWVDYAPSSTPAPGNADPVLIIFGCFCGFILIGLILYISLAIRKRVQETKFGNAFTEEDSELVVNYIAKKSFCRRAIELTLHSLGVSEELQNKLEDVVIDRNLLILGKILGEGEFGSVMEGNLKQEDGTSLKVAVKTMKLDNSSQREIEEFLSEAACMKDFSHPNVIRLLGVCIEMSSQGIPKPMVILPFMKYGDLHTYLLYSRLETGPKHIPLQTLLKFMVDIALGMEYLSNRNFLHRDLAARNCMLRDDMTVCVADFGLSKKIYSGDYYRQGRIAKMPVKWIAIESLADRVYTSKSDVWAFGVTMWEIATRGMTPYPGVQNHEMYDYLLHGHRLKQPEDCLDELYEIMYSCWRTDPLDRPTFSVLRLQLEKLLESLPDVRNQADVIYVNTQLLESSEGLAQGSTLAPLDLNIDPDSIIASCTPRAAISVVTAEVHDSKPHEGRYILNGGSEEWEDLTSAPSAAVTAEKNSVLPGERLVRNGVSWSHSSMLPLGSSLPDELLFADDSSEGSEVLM
- Measurement Protocol: phosphorylation enrichment, bacterial display (enrichment ratio); higher = better substrate or ligand; peptides without Tyr show the background

Look over these answered cases.
Sequence Record | Tested System | phosphorylation enrichment
FSSLGYPPPEG [ZSWIM4_Y87_YF] | MERTK (UniProt Q12866) | 0.401
ILTLKYPIEHG [ACTA1_Y71] | MERTK (UniProt Q12866) | 0.391
LGGSPYPGVPV [FGFR1_Y701] | MERTK (UniProt Q12866) | 0.4
IVGRLYRLLTE [SETX_Y1978_L1976R] | MERTK (UniProt Q12866) | 0.396

Now take the following sequence into account.
INPUT: Fill in: phosphorylation enrichment of SERNNYSRVAN [CWC22_Y797] is ___
OUTPUT: 0.391

----------
- Tested on: c-Abl (mouse)
- Measurement Protocol: phosphorylation enrichment, bacterial display (enrichment ratio); higher = better substrate or ligand; peptides without Tyr show the background
Answer 0.0 if phosphorylation enrichment is under 0.8, and 1.0 if it is 0.8 or more.

INPUT: Could you verify whether the entry RLGNQHVNVMN [SLC3A1_Y461_Y461H] shows phosphorylation enrichment of no less than 0.8?
OUTPUT: 1.0

INPUT: // next record GEHSIYSTVNN [CD55_Y266_C267S]
OUTPUT: 1.0

INPUT: // next record ILDEAYVMAGA [ERBB2_Y772_V777A]
OUTPUT: 0.0

----------
- Tested System: SHP2-C SH2
- Measurement Protocol: SH2 binding enrichment of the phosphorylated peptide, bacterial display (enrichment ratio); higher = better substrate or ligand; peptides without Tyr show the background
Measured SH2 binding enrichment values are reported for all entries that follow.

Look over these answered cases.
Sequence Record | SH2 binding enrichment
QWRTKYETDTI [MYH7_Y1375_A1379T] | 0.735
NVADHYGVYKP [ATP6V0D2_Y271] | 0.647
DGTIVCTGLET [USH2A_Y4487_Y4487C] | 0.632
LFLALYTGLVR [PIGB_Y402_H407R] | 1.02

INPUT: Fill in: SH2 binding enrichment of FRDMDYRSFPR [RBM10_Y41_YF] is ___
OUTPUT: 0.726

INPUT: // next record KASIMYPSNNC [CXCL11_Y52]
OUTPUT: 0.504

INPUT: // next record FQRITYHNWRH [PDE6B_Y556_R552Q_YF]
OUTPUT: 1.86

Ref: the supplement of paper PMC10065799
